- RUN_DESCRIPTION: Cell viability of Jurkat cells (EZ4U)
- Type: cell-based
- CONDITION_LABEL: human, Jurkat cells (acute T cell leukemia), 3 mM HTB, 0 hours, read-out: Percentage of cell viability
EXPERIMENTAL_ENDPOINT: viability at 0 h, 3 mM (%)
Lab book: enter the figure in %, no units written.

### Prompt Request the reported viability at 0 h, 3 mM associated with O=C(O)c1ccc(C(F)(F)F)cc1O [HTB, 2-hydroxy-4-trifluoromethylbenzoic acid]
### Response 100

---

- RUN_DESCRIPTION: Cell viability of 143.98.2 cells (EZ4U)
- Type: cell-based
- CONDITION_LABEL: human, 143.98.2 osteosarcoma cells, 3 mM HTB, 2 hours, read-out: Percentage of cell viability
- Procedure: Several cell lines obtained from the American Type Culture Collection (ATCC) were cultured at 37° C. and under a 5% CO2 atmosphere. Each cell line was grown in an appropriate culture medium and within the exponential phase (Table I). […] The absorbance was also determined at 620 nm as a measure of the existing non-specific value.
EXPERIMENTAL_ENDPOINT: viability at 2 h, 3 mM (%)
Lab book: enter the figure in %, no units written.

### Prompt Request the reported viability at 2 h, 3 mM associated with O=C(O)c1ccc(C(F)(F)F)cc1O [HTB, 2-hydroxy-4-trifluoromethylbenzoic acid]
### Response 98.1

---

- RUN_DESCRIPTION: Cell viability of U-937 cells (EZ4U)
- Type: cell-based
- CONDITION_LABEL: human, U-937 histiocytic lymphoma cells, 3 mM HTB, 0 hours, read-out: Percentage of cell viability
EXPERIMENTAL_ENDPOINT: viability at 0 h, 3 mM (%)
Lab book: enter the figure in %, no units written.

### Prompt Request the reported viability at 0 h, 3 mM associated with O=C(O)c1ccc(C(F)(F)F)cc1O [HTB, 2-hydroxy-4-trifluoromethylbenzoic acid]
### Response 100

---

- RUN_DESCRIPTION: Cell viability of COLO 205 cells (EZ4U)
- Format: cell-based
- CONDITION_LABEL: human, COLO 205 cells (colon adenocarcinoma), 3 mM HTB, 48 hours, read-out: Percentage of cell viability
EXPERIMENTAL_ENDPOINT: viability at 48 h, 3 mM (%)
Lab book: enter the figure in %, no units written.

### Prompt Request the reported viability at 48 h, 3 mM associated with O=C(O)c1ccc(C(F)(F)F)cc1O [HTB, 2-hydroxy-4-trifluoromethylbenzoic acid]
### Response 14.3

---

- RUN_DESCRIPTION: Cell viability of COLO 205 cells (EZ4U)
- Assay type: cell-based
- CONDITION_LABEL: human, COLO 205 cells (colon adenocarcinoma), 1 mM HTB, 0 hours, read-out: Percentage of cell viability
EXPERIMENTAL_ENDPOINT: viability at 0 h, 1 mM (%)
Lab book: enter the figure in %, no units written.

### Prompt Request the reported viability at 0 h, 1 mM associated with O=C(O)c1ccc(C(F)(F)F)cc1O [HTB, 2-hydroxy-4-trifluoromethylbenzoic acid]
### Response 100

---

- RUN_DESCRIPTION: Cell viability of 143.98.2 cells (EZ4U)
- Format: cell-based
- CONDITION_LABEL: human, 143.98.2 cells (osteosarcoma), 1 mM HTB, 24 hours, read-out: Percentage of cell viability
EXPERIMENTAL_ENDPOINT: viability at 24 h, 1 mM

### Prompt Request the reported viability at 24 h, 1 mM associated with O=C(O)c1ccc(C(F)(F)F)cc1O [HTB, 2-hydroxy-4-trifluoromethylbenzoic acid]
### Response 93.9%

---

Below, each entry is listed with its recorded IC50.
- Tested on: iNOS
- RUN_DESCRIPTION: iNOS expression measured as nitrite production induced by immune complexes in rat peritoneal macrophages
- Assay type: cell-based
- CONDITION_LABEL: Peritoneal macrophage, 100 μg/ml IgG/ovalbumin, nitrite after 24 hours, mean ± SEM, read-out: IC50, production of nitrite (NO) induced by immune complexes
Lab book: enter the figure in µM, no units written.

### Prompt Request the reported IC50 associated with O=C(O)c1ccc(C(F)(F)F)cc1O [HTB, 2-hydroxy-4-trifluoromethylbenzoic acid]
### Response 1840

### Prompt Request the reported IC50 associated with CC(=O)Oc1cc(C(F)(F)F)ccc1C(=O)O [triflusal, reference compound]
### Response 1130

---

- RUN_DESCRIPTION: Cell viability of 1321N1 cells (EZ4U)
- Assay type: cell-based
- CONDITION_LABEL: human, 1321N1 cells (astrocytoma), 3 mM HTB, 0 hours, read-out: Percentage of cell viability
EXPERIMENTAL_ENDPOINT: viability at 0 h, 3 mM (%)
Lab book: enter the figure in %, no units written.

### Prompt Request the reported viability at 0 h, 3 mM associated with O=C(O)c1ccc(C(F)(F)F)cc1O [HTB, 2-hydroxy-4-trifluoromethylbenzoic acid]
### Response 100

---

- RUN_DESCRIPTION: Cell viability of 143.98.2 cells (EZ4U)
- Assay type: cell-based
- CONDITION_LABEL: human, 143.98.2 cells (osteosarcoma), 1 mM HTB, 48 hours, read-out: Percentage of cell viability
EXPERIMENTAL_ENDPOINT: viability at 48 h, 1 mM (%)
Lab book: enter the figure in %, no units written.

### Prompt Request the reported viability at 48 h, 1 mM associated with O=C(O)c1ccc(C(F)(F)F)cc1O [HTB, 2-hydroxy-4-trifluoromethylbenzoic acid]
### Response 83.2

---

- RUN_DESCRIPTION: Cell viability of 143.98.2 cells (EZ4U)
- Assay type: cell-based
- CONDITION_LABEL: human, 143.98.2 cells (osteosarcoma), 1 mM HTB, 0 hours, read-out: Percentage of cell viability
EXPERIMENTAL_ENDPOINT: viability at 0 h, 1 mM (%)
Lab book: enter the figure in %, no units written.

### Prompt Request the reported viability at 0 h, 1 mM associated with O=C(O)c1ccc(C(F)(F)F)cc1O [HTB, 2-hydroxy-4-trifluoromethylbenzoic acid]
### Response 100

---

- RUN_DESCRIPTION: Cell viability of 1321N1 cells (EZ4U)
- Format: cell-based
- CONDITION_LABEL: human, 1321N1 cells (astrocytoma), 1 mM HTB, 5 hours, read-out: Percentage of cell viability
EXPERIMENTAL_ENDPOINT: viability at 5 h, 1 mM (%)
Lab book: enter the figure in %, no units written.

### Prompt Request the reported viability at 5 h, 1 mM associated with O=C(O)c1ccc(C(F)(F)F)cc1O [HTB, 2-hydroxy-4-trifluoromethylbenzoic acid]
### Response 94.2

---

- RUN_DESCRIPTION: Cell viability of Jurkat cells (EZ4U)
- Format: cell-based
- CONDITION_LABEL: human, Jurkat cells (acute T cell leukemia), 1 mM HTB, 0 hours, read-out: Percentage of cell viability
EXPERIMENTAL_ENDPOINT: viability at 0 h, 1 mM (%)
Lab book: enter the figure in %, no units written.

### Prompt Request the reported viability at 0 h, 1 mM associated with O=C(O)c1ccc(C(F)(F)F)cc1O [HTB, 2-hydroxy-4-trifluoromethylbenzoic acid]
### Response 100

---

- RUN_DESCRIPTION: Cell viability of U-937 cells (EZ4U)
- Assay type: cell-based
- CONDITION_LABEL: human, U-937 histiocytic lymphoma cells, 1 mM HTB, 72 hours, read-out: Percentage of cell viability
EXPERIMENTAL_ENDPOINT: viability at 72 h, 1 mM (%)
Lab book: enter the figure in %, no units written.

### Prompt Request the reported viability at 72 h, 1 mM associated with O=C(O)c1ccc(C(F)(F)F)cc1O [HTB, 2-hydroxy-4-trifluoromethylbenzoic acid]
### Response 4.8

---

- RUN_DESCRIPTION: Cell viability of 143.98.2 cells (EZ4U)
- Assay type: cell-based
- CONDITION_LABEL: human, 143.98.2 cells (osteosarcoma), 1 mM HTB, 72 hours, read-out: Percentage of cell viability
EXPERIMENTAL_ENDPOINT: viability at 72 h, 1 mM (%)
Lab book: enter the figure in %, no units written.

### Prompt Request the reported viability at 72 h, 1 mM associated with O=C(O)c1ccc(C(F)(F)F)cc1O [HTB, 2-hydroxy-4-trifluoromethylbenzoic acid]
### Response 50.4

---

- RUN_DESCRIPTION: Cell viability of U-937 cells (EZ4U)
- Type: cell-based
- CONDITION_LABEL: human, U-937 histiocytic lymphoma cells, 1 mM HTB, 2 hours, read-out: Percentage of cell viability
EXPERIMENTAL_ENDPOINT: viability at 2 h, 1 mM (%)
Lab book: enter the figure in %, no units written.

### Prompt Request the reported viability at 2 h, 1 mM associated with O=C(O)c1ccc(C(F)(F)F)cc1O [HTB, 2-hydroxy-4-trifluoromethylbenzoic acid]
### Response 100
